Values were extracted from patent US11780833B2.

- Protocol Text: pH-responsiveness by HPLC: emetine released in aqueous phosphate buffer
- Format: physicochemical
- Condition Description: pH 6.5, 0 hr, 37° C.
Documented % Emetine at pH 6.5 across a set of molecules
Endpoint: % Emetine at pH 6.5

>>> print(df.to_string())
                                   molecule  assay_result
0  CCC1CN2CCc3cc(OC)c(OC)cc3C2CC1CC1c2cc(OC)c(OC)cc2CCN1C(=O)/C=C(/C)C(=O)O (centres unmarked) [Compound 3]          0.0%
1  CCC1CN2CCc3cc(OC)c(OC)cc3C2CC1CC1c2cc(OC)c(OC)cc2CCN1C(=O)/C=C(/C)C(=O)O (centres unmarked) [Compound 5]          0.0%
2  CCC1CN2CCc3cc(OC)c(OC)cc3C2CC1CC1c2cc(OC)c(OC)cc2CCN1C(=O)/C=C(/CC(=O)O)C(=O)O (centres unmarked) [Compound 6]          0.0%
3  CCC1CN2CCc3cc(OC)c(OC)cc3C2CC1CC1c2cc(OC)c(OC)cc2CCN1C(=O)/C=C\C(=O)O (centres unmarked) [Compound 2]          0.0%
4  CCC1CN2CCc3cc(OC)c(OC)cc3C2CC1CC1c2cc(OC)c(OC)cc2CCN1C(=O)/C=C\C(=O)O (centres unmarked) [Compound 4]          0.0%

---

Documented pIC50 across a set of compounds
- Test system: PC3 cells
- Protocol Text: cells
- Type: cell-based
- Condition Description: Homo sapiens, PC-3, 168 h, read-out: IC50 after 7 days
pIC50: −log10 of the molar value.
Endpoint: pIC50

>>> df
                                   compound  assay_result
0  CCC1CN2CCc3cc(OC)c(OC)cc3C2CC1CC1c2cc(OC)c(OC)cc2CCN1S(=O)(=O)c1ccc(Cl)cc1 (stereo not drawn) [Compound 8d]          5.38
1  CCC1CN2CCc3cc(OC)c(OC)cc3C2CC1CC1c2cc(OC)c(OC)cc2CCN1C(=S)NCc1ccccc1 (stereo not drawn) [Compound 11e]          5.16
2  CCCCCCCCNC(=S)N1CCc2cc(OC)c(OC)cc2C1CC1CC2c3cc(OC)c(OC)cc3CCN2CC1CC (stereo not drawn) [Compound 11m]          5.85

---

- Test system: LNCaP cells
- Protocol Text: Cytotoxicity in LNCaP prostate cancer cell line
- Assay type: cell-based
- Condition Description: Homo sapiens, 168 h, read-out: IC50 after 7 days
pIC50: −log10 of the molar value.
Endpoint: pIC50

>>> df
                                   compound  endpoint  value_operator  assay_result
0  CCC1CN2CCc3cc(OC)c(OC)cc3C2CC1CC1c2cc(OC)c(OC)cc2CCN1C(=S)SCCC(N)=O (stereo not drawn)     pIC50               <          5.00
1  CCC1CN2CCc3cc(OC)c(OC)cc3C2CC1CC1c2cc(OC)c(OC)cc2CCN1C(=S)SCc1ccccc1 (stereo not drawn)     pIC50               =          5.71
2  CCCCCCNC(=S)N1CCc2cc(OC)c(OC)cc2C1CC1CC2c3cc(OC)c(OC)cc3CCN2CC1CC (stereo not drawn) [Compound 11l]     pIC50               =          5.77
3  CCC1CN2CCc3cc(OC)c(OC)cc3C2CC1CC1c2cc(OC)c(OC)cc2CCN1C(=S)NCc1ccc(Cl)cc1 (stereo not drawn) [Compound 11g]     pIC50               =          5.80
4  CCCCNC(=S)N1CCc2cc(OC)c(OC)cc2C1CC1CC2c3cc(OC)c(OC)cc3CCN2CC1CC (stereo not drawn) [Compound 11k]     pIC50               =          5.88
5  CCC1CN2CCc3cc(OC)c(OC)cc3C2CC1CC1c2cc(OC)c(OC)cc2CCN1C(=S)NCc1ccccc1 (stereo not drawn) [Compound 11e]     pIC50               =          5.69
